Would you mind telling me the reported Minimal inhibitory concentration (MIC) of each entry?
System: Candida albicans ATCC 90028
method: CO-ADD MIC, antifungal assay (CLSI)
Format: cell-based
condition-details: Yeast Nitrogen Base broth, 24 h 35 °C, by CO-ADD
Peptide text beside a SMILES is read from it. * marks the point of attachment. Palmitoyl = CCCCCCCCCCCCCCCC(=O)*

[in] // Minimal inhibitory concentration (MIC) lookup, key: N=C(N)NCCC[C@H](NC(=O)[C@H](CCCNC(=N)N)NC(=O)[C@H](CS)NC(=O)[C@H](CCCNC(=N)N)NC(=O)[C@H](Cc1c[nH]cn1)NC(=O)[C@H](CO)NC(=O)[C@H](CCCNC(=N)N)NC(=O)[C@H](CS)NC(=O)[C@H](CS)NC(=O)[C@H](CCCNC(=N)N)NC(=O)[C@H](Cc1c[nH]cn1)NC(=O)[C@H](Cc1c[nH]cn1)NC(=O)[C@@H](N)CO)C(=O)O [LCE-3B56-68] (H-SHHRCCRSHRCRR-OH)
[out] >32 mg/L

[in] Moving on to CCCCCCCCCCCCCCCC(=O)NCC(=O)N[C@@H](CCCNC(=N)N)C(=O)N[C@@H](CCCNC(=N)N)C(=O)NCC(=O)N[C@@H](CO)C(=O)NCC(=O)N[C@@H](CC(C)C)C(=O)NCC(=O)N[C@@H](CCCNC(=N)N)C(=O)N[C@@H](CO)C(=O)N[C@@H](CO)C(=O)N[C@@H](CO)C(=O)N[C@@H](CCCNC(=N)N)C(=O)O [Pal-HR 1-18-3H3R-GR13] (Palmitoyl-GRRGSGLGRSSSR-OH)
[out] >32 mg/L
